# systemUnderTest: GRK5 (Homo sapiens, UniProt P34947)
# Sequence (P34947 whole entry): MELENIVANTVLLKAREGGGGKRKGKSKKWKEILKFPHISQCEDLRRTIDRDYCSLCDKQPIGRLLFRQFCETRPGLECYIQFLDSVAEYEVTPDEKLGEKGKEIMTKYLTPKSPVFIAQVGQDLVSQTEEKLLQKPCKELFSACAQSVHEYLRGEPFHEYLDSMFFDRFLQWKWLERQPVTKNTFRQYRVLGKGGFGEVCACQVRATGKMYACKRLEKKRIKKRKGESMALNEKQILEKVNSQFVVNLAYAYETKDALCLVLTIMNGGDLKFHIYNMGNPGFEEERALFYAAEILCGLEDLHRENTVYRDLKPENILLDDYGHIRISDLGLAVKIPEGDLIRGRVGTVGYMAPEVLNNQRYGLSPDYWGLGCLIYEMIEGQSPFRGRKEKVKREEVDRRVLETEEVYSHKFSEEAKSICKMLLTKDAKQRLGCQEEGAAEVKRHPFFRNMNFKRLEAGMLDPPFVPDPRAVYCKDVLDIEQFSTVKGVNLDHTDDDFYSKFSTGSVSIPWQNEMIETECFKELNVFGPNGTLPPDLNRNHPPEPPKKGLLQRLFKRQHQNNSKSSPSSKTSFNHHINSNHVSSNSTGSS
# procedureDetails: radiometric GRK5 inhibition assay (tubulin phosphorylation)
# conditionLabel: read-out: GRK5 IC50
metricName: pIC50
Answers are plain numbers, as −log10 of the molar value.

Query block: What does the record list as pIC50 for "Cc1[nH]c(/C=C2\C(=O)Nc3ccc(C(=O)N[C@H](C)c4ccccc4)cc32)c(C)c1NC(=O)CBr" ?
Result block: 8.07

---

# systemUnderTest: bovine GRK2 (Bos taurus, UniProt P21146)
# Sequence (P21146 whole entry): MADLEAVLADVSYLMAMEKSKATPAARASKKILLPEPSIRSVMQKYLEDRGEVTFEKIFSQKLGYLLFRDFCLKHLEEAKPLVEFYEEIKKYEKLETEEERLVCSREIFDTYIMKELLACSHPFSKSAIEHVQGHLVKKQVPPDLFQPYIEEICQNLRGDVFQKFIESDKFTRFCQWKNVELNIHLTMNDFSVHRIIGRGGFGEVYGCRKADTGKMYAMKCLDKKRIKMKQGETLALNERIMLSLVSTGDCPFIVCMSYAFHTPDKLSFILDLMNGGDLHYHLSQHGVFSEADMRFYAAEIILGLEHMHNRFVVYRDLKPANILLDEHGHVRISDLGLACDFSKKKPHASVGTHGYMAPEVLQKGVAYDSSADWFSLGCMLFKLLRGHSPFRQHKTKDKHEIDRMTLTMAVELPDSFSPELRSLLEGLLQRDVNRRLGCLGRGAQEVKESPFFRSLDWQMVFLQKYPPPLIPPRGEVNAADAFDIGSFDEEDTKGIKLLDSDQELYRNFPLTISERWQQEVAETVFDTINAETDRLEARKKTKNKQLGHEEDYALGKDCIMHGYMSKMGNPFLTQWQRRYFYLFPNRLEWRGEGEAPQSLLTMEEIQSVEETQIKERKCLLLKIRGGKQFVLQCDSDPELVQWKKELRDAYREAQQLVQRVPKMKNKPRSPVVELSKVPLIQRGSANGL
# procedureDetails: radiometric GRK2 inhibition assay (tubulin phosphorylation)
# conditionLabel: read-out: GRK2 IC50; Table 1, μM ± SD
metricName: IC50 (µM)
Answers are plain numbers, in µM.

Here are 6 molecules together with their reported answers.
CC#CC(=O)Nc1c(C)[nH]c(/C=C2\C(=O)Nc3ccc(C(=O)N[C@H](C)c4ccccc4)cc32)c1C [Compound 9a]
150
Cc1[nH]c(/C=C2\C(=O)Nc3ccc(C(=O)N[C@H](C)c4ccccc4)cc32)c(C)c1NC(=O)CBr [Compound 9g]
12
Cc1[nH]c(/C=C2\C(=O)Nc3ccc(C(=O)N[C@H](C)c4ccccc4)cc32)c(C)c1NC(=O)CCl [Compound 9e]
350
Cc1[nH]c(/C=C2\C(=O)Nc3ccc(C(=O)N[C@H](C)c4ccccc4)cc32)c(C)c1NC(=O)/C=C/CN(C)C [Compound 9f]
17
C=CS(=O)(=O)Nc1c(C)[nH]c(/C=C2\C(=O)Nc3ccc(C(=O)N[C@H](C)c4ccccc4)cc32)c1C [Compound 9c]
280
C=CCCNC(=O)c1c(C)[nH]c(/C=C2\C(=O)Nc3ccc(C(=O)N[C@H](C)c4ccccc4)cc32)c1C [Compound 5f]
630

Required: IC50, one value per molecule below.
1. C=CC(=O)Nc1c(C)[nH]c(/C=C2\C(=O)Nc3ccc(C(=O)N[C@H](C)c4ccccc4)cc32)c1C [Compound 9b]
2. C#CCNC(=O)c1c(C)[nH]c(/C=C2\C(=O)Nc3ccc(C(=O)N[C@H](C)c4ccccc4)cc32)c1C [Compound 5c]
3. CCN(CC)CCNC(=O)c1c(C)[nH]c(/C=C2\C(=O)Nc3ccc(C(=O)N[C@H](C)c4ccccc4)cc32)c1C [Compound 5a]

Result block:
1. 87
2. 44
3. 1.1

Batch request: IC50 for each of the following molecules.
1. Cc1[nH]c(/C=C2\C(=O)Nc3ccc(C(=O)N[C@H](C)c4ccccc4)cc32)c(C)c1NC(=O)/C(C#N)=C/C(C)(C)C [Compound 10a]
2. C=CCNC(=O)c1c(C)[nH]c(/C=C2\C(=O)Nc3ccc(C(=O)N[C@H](C)c4ccccc4)cc32)c1C [Compound 5d]
3. Cc1[nH]c(/C=C2\C(=O)Nc3ccc(C(=O)N[C@H](C)c4ccccc4)cc32)c(C)c1[N+](=O)[O-] [Compound 7a]
4. CCN(CC)CCNC(=O)c1c(C)[nH]c(/C=C2\C(=O)Nc3ccc(C(=O)N[C@@H](C)c4ccccc4)cc32)c1C [Compound 5b]
5. Cc1[nH]c(/C=C2\C(=O)Nc3ccc(C(=O)N[C@H](C)c4ccccc4)cc32)c(C)c1NC(=O)C(O)CCl (some centres unmarked) [Compound 9h]

Result block:
1: 120; 2: 22; 3: 7.2; 4: 44; 5: 6.7
